target: Gag-Pol polyprotein (Human immunodeficiency virus type 1 group M subtype B (isolate HXB2)) (UniProt P04585); test: RNase H inhibition, HIV 1 Gag Pol polyprotein, FRET biochemical assay, screening (AID 372); details: HIV-1 RT RNase H, FRET RNA/DNA substrate fluorescence; at 10 µM; stronger effect = higher value
In all, about 100,000 compounds went through this assay and about 770 (0.77%) were called active. For the sample, actives were picked, then their nearest neighbours and some compounds at random.
MEASURED_ENDPOINT: inhibition (%)

- COMPOUND: "O=C(CSc1nc2ccccc2s1)Nc1ccc(F)c([N+](=O)[O-])c1"
  MEASURED_ENDPOINT: "inhibition"
  ENDPOINT_RESULT: 2
- COMPOUND: "CCOc1ccccc1C=Nn1c(-c2ccc(Cl)cc2Cl)n[nH]c1=S"
  MEASURED_ENDPOINT: "inhibition"
  ENDPOINT_RESULT: 15
- COMPOUND: "O=C(Nc1ccc(Cl)c(-c2nc3ccccc3s2)c1)c1ccccc1F"
  MEASURED_ENDPOINT: "inhibition"
  ENDPOINT_RESULT: 14
- COMPOUND: "COc1cc(OC)c(NC(=O)C(Cl)(Cl)Cl)cc1Cl"
  MEASURED_ENDPOINT: "inhibition"
  ENDPOINT_RESULT: 2
- COMPOUND: "C=CCOc1ccc(-c2nc3sc4c(c3c(=O)[nH]2)CCCC4)cc1OC"
  MEASURED_ENDPOINT: "inhibition"
  ENDPOINT_RESULT: 30
- COMPOUND: "COc1cc(-c2nc3sc4c(c3c(=O)[nH]2)CCCC4)ccc1OCC(=O)O"
  MEASURED_ENDPOINT: "inhibition"
  ENDPOINT_RESULT: 5
- COMPOUND: "Cc1ccc(-c2nc3cc(Cl)cc(Cl)c3o2)cc1NC(=O)Cc1ccc(Cl)cc1"
  MEASURED_ENDPOINT: "inhibition"
  ENDPOINT_RESULT: 38
- COMPOUND: "NC1=NC(=O)/C(=C/c2cccc(OS(=O)(=O)c3cccc([N+](=O)[O-])c3)c2)S1"
  MEASURED_ENDPOINT: "inhibition"
  ENDPOINT_RESULT: 3
- COMPOUND: "CCOC(=O)C(CCCCCOc1ccccc1C(C)(C)C)C(=O)OCC"
  MEASURED_ENDPOINT: "inhibition"
  ENDPOINT_RESULT: 20
- COMPOUND: "N#Cc1c(N2CCCCC2)ncc2cc3ccccc3nc12"
  MEASURED_ENDPOINT: "inhibition"
  ENDPOINT_RESULT: 0
- COMPOUND: "COc1ccc(NC(=O)c2nn3c(C(F)(F)F)cc(-c4ccco4)nc3c2Cl)c(OC)c1"
  MEASURED_ENDPOINT: "inhibition"
  ENDPOINT_RESULT: 13
- COMPOUND: "O=C(N/N=C/c1ccc(O)c(O)c1)c1ccc(O)cc1"
  MEASURED_ENDPOINT: "inhibition"
  ENDPOINT_RESULT: 37
- COMPOUND: "Cc1cccc(-c2nc3cc(NC(=O)Cc4ccc(Cl)cc4)ccc3o2)c1"
  MEASURED_ENDPOINT: "inhibition"
  ENDPOINT_RESULT: 53
- COMPOUND: "CC(=O)c1cccc(NC(=O)CC2S/C(=N\\N=C(/C)c3ccc(Cl)cc3)NC2=O)c1 (configuration not stated)"
  MEASURED_ENDPOINT: "inhibition"
  ENDPOINT_RESULT: 13
- COMPOUND: "O=C(Cc1ccc(Cl)cc1)Nc1ccc2oc(-c3cccc(Cl)c3)nc2c1"
  MEASURED_ENDPOINT: "inhibition"
  ENDPOINT_RESULT: 52
- COMPOUND: "O=C(Cc1ccc(Cl)cc1)Nc1cccc(-c2nc3cc(Cl)cc(Cl)c3o2)c1"
  MEASURED_ENDPOINT: "inhibition"
  ENDPOINT_RESULT: 2
- COMPOUND: "COc1cc(/C=N/n2cnnc2)ccc1OCCSc1ccc(C)cc1"
  MEASURED_ENDPOINT: "inhibition"
  ENDPOINT_RESULT: 15
- COMPOUND: "O=C(N/N=C/c1ccc(O)c(O)c1)c1ccc(Br)cc1"
  MEASURED_ENDPOINT: "inhibition"
  ENDPOINT_RESULT: 41
- COMPOUND: "COc1ccccc1N1C(=O)/C(=C/C(C)=C/c2ccccc2)SC1=S"
  MEASURED_ENDPOINT: "inhibition"
  ENDPOINT_RESULT: 13
- COMPOUND: "O=C(Cc1csc(-c2ccccc2)n1)Nc1nccs1"
  MEASURED_ENDPOINT: "inhibition"
  ENDPOINT_RESULT: 0
- COMPOUND: "CCOC(=O)C1=C(C)N=c2s/c(=C\\c3ccc(-c4ccc(Cl)cc4)o3)c(=O)n2C1c1ccc(OC)c(OC)c1 (configuration not stated)"
  MEASURED_ENDPOINT: "inhibition"
  ENDPOINT_RESULT: 13
- COMPOUND: "COc1cc(-c2nc3sc4c(c3c(=O)[nH]2)CCCC4)ccc1OCc1cccc(F)c1"
  MEASURED_ENDPOINT: "inhibition"
  ENDPOINT_RESULT: 56
